Recorded measurements of IC50, one per entry
Biological target: recombinant form of Glutaminase 1 (GAC) (Homo sapiens, UniProt O94925)
Assay: Recombinant enzyme assay (GAC, GDH-coupled absorbance, no preincubation)
Format: biochemical
Details: read-out: GAC Delta N2 IC50 no preinc
measured_metric: IC50 (nM)

| query_smiles | value_observed |
| --- | --- |
| CCOc1ccccc1CC(=O)Nc1nnc(CCCCc2nnc(NC(=O)Cc3ccccc3OC)s2)s1 | 160 |
| COc1cc(CC(=O)Nc2nnc(CCSCCc3nnc(NC(=O)Cc4cc(OC)cc(OC)c4)s3)s2)cc(OC)c1 | 180 |
| O=C(Cc1cc2ccccc2s1)Nc1cnc(CCSCCc2nnc(NC(=O)Cc3cc4ccccc4s3)s2)s1 | 13000 |

----------
Target: recombinant form of Glutaminase 1 (GAC) (Homo sapiens, UniProt O94925)
Experiment: Recombinant enzyme assay - time dependence (60 minutes enzyme/compound preincubation)
Type: biochemical
Conditions: read-out: GAC Delta N2 IC50 60 min preinc
pIC50: −log10 of the molar value.

| compound | assay_target | pIC50 |
| --- | --- | --- |
| NCc1cccc(CC(=O)Nc2nnc(CCCCc3nnc(NC(=O)Cc4cccc(CN)c4)s3)s2)c1 [Compound 325] | recombinant form of Glutaminase 1 (GAC) (Homo sapiens, UniProt O94925) | 6.77 |

----------
Molecular target: recombinant form of Glutaminase 1 (GAC) (Homo sapiens, UniProt O94925)
Assay: Recombinant enzyme assay (GAC, GDH-coupled absorbance, no preincubation)
Type: biochemical
Conditions: read-out: GAC Delta N2 IC50 no preinc
IC50 reference

| molecule | IC50 |
| --- | --- |
| O=C(N[C@@H](CO)C(=O)Nc1nnc(CCSCCc2nnc(NC(=O)[C@H](CO)NC(=O)OCc3ccccc3)s2)s1)OCc1ccccc1 | 750 nM |
| CC[C@](O)(C(=O)Nc1nnc(CCCCc2nnc(NC(=O)[C@@](O)(CC)c3ccccc3)s2)s1)c1ccccc1 (single isomer, unassigned) | > 20000 nM |
| COc1cccc(CC(=O)Nc2nnc(CCSCc3nnc(NC(=O)Cc4cccc(OC)c4)s3)s2)c1 | 120 nM |
| O=C(Cc1nnc(CCSCCc2nnc(NC(=O)C3CCOCC3)s2)s1)C1CCOCC1 | > 20000 nM |
| CC1(C)O[C@@H](C(=O)Nc2nnc(CCCCc3nnc(NC(=O)[C@@H]4OC(C)(C)O[C@H]4c4ccccc4)s3)s2)[C@H](c2ccccc2)O1 | > 20000 nM |
| O=C(Cc1ccc(Cl)s1)Nc1cnc(CCSCCc2nnc(NC(=O)Cc3ccc(Cl)s3)s2)s1 | > 20000 nM |
| CC(C)(C)c1ccc(CC(=O)Nc2nnc(CCCCc3nnc(NC(=O)Cc4ccc(C(C)(C)C)cc4)s3)s2)cc1 | > 20000 nM |
| Nc1cccc(CC(=O)Nc2nnc(CCCCc3nnc(NC(=O)Cc4cccc(N)c4)s3)s2)c1 | 170 nM |
| NCc1cccc(CC(=O)Nc2nnc(CCCCc3nnc(NC(=O)Cc4cccc(CN)c4)s3)s2)c1 | 660 nM |
| CC(C)(C)OC(=O)Nc1ccc(CC(=O)Nc2nnc(CCCCc3nnc(NC(=O)Cc4ccc(NC(=O)OC(C)(C)C)cc4)s3)s2)cc1 | > 20000 nM |
| O=C(Nc1nnc(CCCCc2nnc(NC(=O)C3COc4ccccc43)s2)s1)C1COc2ccccc21 (centres unmarked) | 300 nM |
| O=C(Cc1ccccc1)Nc1ccc(CCCCc2nnc(NC(=O)Cc3cccc(O)c3)s2)nn1 | 76 nM |
| O=C(Cc1cc2ccccc2o1)Nc1nnc(CCSCCc2nnc(NC(=O)Cc3cc4ccccc4o3)s2)s1 | 3400 nM |
| O=C(O)Cc1cccc(CC(=O)Nc2nnc(CCCCc3nnc(NC(=O)Cc4cccc(CC(=O)O)c4)s3)s2)c1 | 270 nM |

----------
Measured pIC50, listed per entry.
Tested on: P493-6 (myc "on") cells
Assay: Cell proliferation assay (72 hrs, Cell Titer Glo or Viacount FACS)
Type: cell-based
Conditions: read-out: Cell prolif P493 72 h IC50; P493 cells, 72 h
pIC50: −log10 of the molar value.

| compound | qualifier | pIC50 |
| --- | --- | --- |
| CC(C)(C)OC(=O)N1CCN(Cc2cccc(CC(=O)Nc3nnc(CCSCc4nnc(NC(=O)Cc5cccc(CN6CCN(C(=O)OC(C)(C)C)CC6)c5)s4)s3)c2)CC1 [Compound 275] | = | 6.47 |
| COc1cccc(C(CO)C(=O)Nc2nnc(CCCCc3nnc(NC(=O)C(CO)c4cccc(OC)c4)s3)s2)c1 (centres unmarked) [Compound 257] | = | 7.14 |
| Cc1ccccc1C(C)C(=O)Nc1nnc(CCSCCc2nnc(NC(=O)C(C)c3ccccc3C)s2)s1 (centres unmarked) [Compound 262] | = | 5.51 |
| COc1ccccc1CC(=O)Nc1nnc(CCCCc2nnc(NC(=O)Cc3ccccc3OC)s2)s1 [Compound 264] | = | 8.00 |
| CC(C(=O)Nc1nnc(CCCCc2nnc(NC(=O)C(C)c3ccccc3Cl)s2)s1)c1ccccc1Cl (centres unmarked) [Compound 274] | = | 6.17 |
| O=C(Cc1cccc(Cn2cccn2)c1)Nc1nnc(CCCCc2nnc(NC(=O)Cc3cccc(Cn4cccn4)c3)s2)s1 [Compound 362] | = | 7.27 |
| O=C(Cc1cccc(OCCN2CCOCC2)c1)Nc1nnc(CCSCCc2nnc(NC(=O)Cc3cccc(OCCN4CCOCC4)c3)s2)s1 [Compound 240] | = | 5.89 |
| COc1cccc(CC(=O)Nc2nnc(CCSCCc3nnc(NC(=O)Cc4cccc(OC)c4OC)s3)s2)c1OC [Compound 259] | = | 6.24 |
| COc1cccc(C(CO)C(=O)Nc2nnc(CCSCc3nnc(NC(=O)C(CO)c4cccc(OC)c4)s3)s2)c1 (centres unmarked) [Compound 258] | = | 6.74 |
| CCOC(=O)Nc1nnc(CCCCc2nnc(NC(=O)Cc3ccccc3)s2)s1 [Compound 244] | = | 5.77 |
| O=C(Cc1cccc(-n2cccn2)c1)Nc1nnc(CCCCc2nnc(NC(=O)Cc3cccc(-n4cccn4)c3)s2)s1 [Compound 285] | = | 6.85 |
| Cc1cccc(CC(=O)Nc2nnc(CCSCCc3nnc(NC(=O)Cc4cccc(C)c4)s3)s2)c1 [Compound 247] | = | 6.08 |
| COc1ccccc1CC(=O)Nc1nnc(CCSCCc2nnc(NC(=O)C(CO)c3ccccc3OC)s2)s1 (centres unmarked) [Compound 246] | = | 5.80 |
| O=C(Cc1ccc2ncccc2c1)Nc1nnc(CCSCCc2nnc(NC(=O)Cc3ccc4ncccc4c3)s2)s1 [Compound 268] | = | 5.27 |
| O=C(Cc1cccc(OCCN2CCOCC2)c1)Nc1nnc(CCSCc2nnc(NC(=O)Cc3cccc(OCCN4CCOCC4)c3)s2)s1 [Compound 267] | = | 6.19 |
| O=C(Cc1ccc2ncccc2c1)Nc1nnc(CCCCc2nnc(NC(=O)Cc3ccc4ncccc4c3)s2)s1 [Compound 269] | = | 6.28 |
| CC(C)(C)OC(=O)Nc1cccc(CC(=O)Nc2nnc(CCCCc3nnc(NC(=O)Cc4cccc(NC(=O)OC(C)(C)C)c4)s3)s2)c1 [Compound 327] | = | 6.82 |
| O=C(Cc1cccc(Br)c1)Nc1nnc(CCSCCc2nnc(NC(=O)Cc3cccc(Br)c3)s2)s1 [Compound 270] | = | 6.07 |
| COc1cccc(CC(=O)Nc2nnc(CCSCc3nnc(NC(=O)Cc4cccc(OC)c4)s3)s2)c1 [Compound 250] | = | 6.85 |
| COc1ccccc1CC(=O)Nc1nnc(CCSCc2nnc(NC(=O)Cc3ccccc3OC)s2)s1 [Compound 249] | = | 6.80 |
| CC(C(=O)Nc1nnc(CCSCCc2nnc(NC(=O)C(C)c3ccccc3Cl)s2)s1)c1ccccc1Cl (centres unmarked) [Compound 261] | = | 5.59 |
| O=C(Cc1cccc(-n2ccnc2)c1)Nc1nnc(CCCCc2nnc(NC(=O)Cc3cccc(-n4ccnc4)c3)s2)s1 [Compound 363] | < | 4.70 |
| O=C(Cc1cccs1)Nc1nnc(CCSCc2nnc(NC(=O)Cc3cccs3)s2)s1 [Compound 237] | = | 6.60 |

----------
Test system: P493-6 (myc "on") cells
Assay: Cell proliferation assay (72 hrs, Cell Titer Glo or Viacount FACS)
Format: cell-based
Details: read-out: Cell prolif P493 72 h IC50; P493 cells, 72 h

| molecule | IC50 |
| --- | --- |
| O=C(Cc1cccc(OCCO)c1)Nc1nnc(CCSCCc2nnc(NC(=O)Cc3cccc(OCCO)c3)s2)s1 [Compound 236] | 1.4 µM |
| COC(C(=O)Nc1nnc(CCSCCc2nnc(NC(=O)C(OC)c3ccccc3)s2)s1)c1ccccc1 (stereo not shown) [Compound 67] | 1.8 µM |
| O=C(O)Cc1cccc(CC(=O)Nc2nnc(CCCCc3nnc(NC(=O)Cc4cccc(CC(=O)O)c4)s3)s2)c1 [Compound 313] | 94 µM |
| NCc1cccc(CC(=O)Nc2nnc(CCCCc3nnc(NC(=O)Cc4cccc(CN)c4)s3)s2)c1 [Compound 325] | 0.03 µM |
| Nc1cccc(CC(=O)Nc2nnc(CCCCc3nnc(NC(=O)Cc4cccc(N)c4)s3)s2)c1 [Compound 329] | 0.45 µM |
| O=C(CN1C(=O)OC[C@H]1c1ccccc1)Nc1nnc(CCSCCc2nnc(NC(=O)CN3C(=O)OC[C@H]3c3ccccc3)s2)s1 [Compound 243] | 33 µM |
| COc1cccc(CC(=O)Nc2nnc(CCCCc3nnc(NC(=O)Cc4cccc(OC)c4OC)s3)s2)c1OC [Compound 260] | 0.084 µM |
